tested on: 475296-252-R-J1-PDC spheroid viability; assay: Anticancer human tumor 475296-252-R-J1-PDC patient-derived rectal carcinoma cell line growth inhibition [PI3K]; details: second compound 1 µM; first compound 0.0316 µM; stronger effect = lower value; spheroids with HUVEC and MSC
reported.metric: viability, T/C (%)
Use % as the unit, but write only the number.

Use these answered entries as a reference point.
compound="CCCS(=O)(=O)Nc1ccc(F)c(C(=O)c2c[nH]c3ncc(-c4ccc(Cl)cc4)cc23)c1F + Cc1nc(NC(=O)N2CCCC2C(N)=O)sc1-c1ccnc(C(C)(C)C(F)(F)F)c1" measured=83.1
compound="CC(=O)c1c(C)c2cnc(Nc3ccc(N4CCNCC4)cn3)nc2n(C2CCCC2)c1=O + CC(Nc1ncnc2nc[nH]c12)c1cc2cccc(Cl)c2c(=O)n1-c1ccccc1" measured=107

Please find the next compound below.
Request: For the compound shown here, C=CC(=O)N1CCN(c2nc(=O)n(-c3c(C)ccnc3C(C)C)c3nc(-c4c(O)cccc4F)c(F)cc23)C(C)C1 (stereo not drawn) + CC(Nc1ncnc2nc[nH]c12)c1cc2cccc(Cl)c2c(=O)n1-c1ccccc1 , give the reported viability, T/C.
Response: 95.3

---

tested on: 475296-252-R-J1-PDC spheroid viability; assay: Anticancer human tumor 475296-252-R-J1-PDC cell line growth inhibition [PI3K]; settings: curve of first compound; second compound 3.16 µM; spheroids with HUVEC and MSC;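 further: spheroids exposed to agents for seven days before readout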
Below is a list of entries, each paired with its recorded IC50 value.

Use these answered entries as a reference point.
molecule="C=CC(=O)N1CCN(c2nc(=O)n(-c3c(C)ccnc3C(C)C)c3nc(-c4c(O)cccc4F)c(F)cc23)C(C)C1 (configuration not stated) + CC(Nc1ncnc2nc[nH]c12)c1cc2cccc(Cl)c2c(=O)n1-c1ccccc1" system="475296-252-R-J1-PDC spheroid viability" measured="> 10 µM"
molecule="CC(=O)c1c(C)c2cnc(Nc3ccc(N4CCNCC4)cn3)nc2n(C2CCCC2)c1=O + Cc1nc(NC(=O)N2CCCC2C(N)=O)sc1-c1ccnc(C(C)(C)C(F)(F)F)c1" system="475296-252-R-J1-PDC spheroid viability" measured="> 0.1 µM"
molecule="CC1(C)CCC(CN2CCN(c3ccc(C(=O)NS(=O)(=O)c4ccc(NCC5CCOCC5)c([N+](=O)[O-])c4)c(Oc4cnc5[nH]ccc5c4)c3)CC2)=C(c2ccc(Cl)cc2)C1 + CC(Nc1ncnc2nc[nH]c12)c1cc2cccc(Cl)c2c(=O)n1-c1ccccc1" system="475296-252-R-J1-PDC spheroid viability" measured="> 10 µM"
molecule="Cn1cnc2c(F)c(Nc3ccc(Br)cc3Cl)c(C(=O)NOCCO)cc21 + Cc1nc(NC(=O)N2CCCC2C(N)=O)sc1-c1ccnc(C(C)(C)C(F)(F)F)c1" system="475296-252-R-J1-PDC spheroid viability" measured="0.463 µM"
molecule="C=CC(=O)N1CCN(c2nc(=O)n(-c3c(C)ccnc3C(C)C)c3nc(-c4c(O)cccc4F)c(F)cc23)C(C)C1 (configuration not stated) + Cc1nc(NC(=O)N2CCCC2C(N)=O)sc1-c1ccnc(C(C)(C)C(F)(F)F)c1" system="475296-252-R-J1-PDC spheroid viability" measured="> 10 µM"

Request: For the molecule shown here, CC1(C)CCC(CN2CCN(c3ccc(C(=O)NS(=O)(=O)c4ccc(NCC5CCOCC5)c([N+](=O)[O-])c4)c(Oc4cnc5[nH]ccc5c4)c3)CC2)=C(c2ccc(Cl)cc2)C1 + Cc1nc(NC(=O)N2CCCC2C(N)=O)sc1-c1ccnc(C(C)(C)C(F)(F)F)c1 , give the reported IC50.
Response: > 10 µM

Request: Please give the result for CNC(=O)c1ccc(N2C(=S)N(c3ccc(C#N)c(C(F)(F)F)c3)C(=O)C2(C)C)cc1F + CC(Nc1ncnc2nc[nH]c12)c1cc2cccc(Cl)c2c(=O)n1-c1ccccc1 too.
Response: > 10 µM

Request: Please give the result for CC(C)NCC(C(=O)N1CCN(c2ncnc3c2C(C)CC3O)CC1)c1ccc(Cl)cc1 (configuration not stated) + CC(Nc1ncnc2nc[nH]c12)c1cc2cccc(Cl)c2c(=O)n1-c1ccccc1 too.
Response: > 10 µM

Request: Please give the result for Cn1ncc(Cl)c1-c1cc(C(=O)NC(CN)Cc2cccc(F)c2)sc1Cl (configuration not stated) + CC(Nc1ncnc2nc[nH]c12)c1cc2cccc(Cl)c2c(=O)n1-c1ccccc1 too.
Response: > 10 µM

Request: Please give the result for Cn1nccc1Nc1nccc(-c2ccn(C(CO)c3ccc(Cl)c(F)c3)c(=O)c2)n1 (configuration not stated) + CC(Nc1ncnc2nc[nH]c12)c1cc2cccc(Cl)c2c(=O)n1-c1ccccc1 too.
Response: > 10 µM

Request: Please give the result for CC(C)NCC(C(=O)N1CCN(c2ncnc3c2C(C)CC3O)CC1)c1ccc(Cl)cc1 (configuration not stated) + Cc1nc(NC(=O)N2CCCC2C(N)=O)sc1-c1ccnc(C(C)(C)C(F)(F)F)c1 too.
Response: > 10 µM

Request: Please give the result for CCCS(=O)(=O)Nc1ccc(F)c(C(=O)c2c[nH]c3ncc(-c4ccc(Cl)cc4)cc23)c1F + Cc1nc(NC(=O)N2CCCC2C(N)=O)sc1-c1ccnc(C(C)(C)C(F)(F)F)c1 too.
Response: > 10 µM

---

tested on: 475296-252-R-J1-PDC spheroid viability; test: Anticancer human tumor 475296-252-R-J1-PDC cell line growth inhibition [PI3K]; details: second compound 10 µM; first compound 0.0316 µM; stronger effect = lower value; spheroids with HUVEC and MSC;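 further: spheroids exposed to agents for seven days before readout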
Below is a list of entries, each paired with its recorded viability, T/C value.
Use % as the unit, but write only the number.

compound="Cn1nccc1Nc1nccc(-c2ccn(C(CO)c3ccc(Cl)c(F)c3)c(=O)c2)n1 (stereo not given) + Cc1nc(NC(=O)N2CCCC2C(N)=O)sc1-c1ccnc(C(C)(C)C(F)(F)F)c1" reported_metric="viability, T/C" result_units=% measured=87.7

Request: For the compound shown here, Cn1ncc(Cl)c1-c1cc(C(=O)NC(CN)Cc2cccc(F)c2)sc1Cl (stereo not given) + Cc1nc(NC(=O)N2CCCC2C(N)=O)sc1-c1ccnc(C(C)(C)C(F)(F)F)c1 , give the reported viability, T/C.
Response: 84.8

Request: Please give the result for C#Cc1c(F)ccc2cc(O)cc(-c3ncc4c(N5CC6CCC(C5)N6)nc(OCC56CCCN5CC(F)C6)nc4c3F)c12 (stereo not given) + CC(Nc1ncnc2nc[nH]c12)c1cc2cccc(Cl)c2c(=O)n1-c1ccccc1 too.
Response: 95.2

Request: Please give the result for CC(=O)c1c(C)c2cnc(Nc3ccc(N4CCNCC4)cn3)nc2n(C2CCCC2)c1=O + Cc1nc(NC(=O)N2CCCC2C(N)=O)sc1-c1ccnc(C(C)(C)C(F)(F)F)c1 too.
Response: 98.8

Request: Please give the result for CNC(=O)c1ccc(N2C(=S)N(c3ccc(C#N)c(C(F)(F)F)c3)C(=O)C2(C)C)cc1F + CC(Nc1ncnc2nc[nH]c12)c1cc2cccc(Cl)c2c(=O)n1-c1ccccc1 too.
Response: 103

---

Below is a list of entries, each paired with its recorded pIC50 value.
tested on: 475296-252-R-J1-PDC spheroid viability; assay: Anticancer human tumor 475296-252-R-J1-PDC cell line growth inhibition [PI3K]; details: curve of first compound; second compound 10 µM; spheroids with HUVEC and MSC;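 further: spheroids exposed to agents for seven days before readout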
By convention, pIC50 is the negative base-10 log of a molar concentration.

compound="C#Cc1c(F)ccc2cc(O)cc(-c3ncc4c(N5CC6CCC(C5)N6)nc(OCC56CCCN5CC(F)C6)nc4c3F)c12 (stereo not given) + Cc1nc(NC(=O)N2CCCC2C(N)=O)sc1-c1ccnc(C(C)(C)C(F)(F)F)c1" reported_metric=pIC50 measured=6.57

Please find the next compound below.
Request: For the compound shown here, C[C@@H](NC(=O)c1ncnc(N)c1Cl)c1ncc(C(=O)Nc2cc(C(F)(F)F)c(Cl)cn2)s1 + Cc1nc(NC(=O)N2CCCC2C(N)=O)sc1-c1ccnc(C(C)(C)C(F)(F)F)c1 , give the reported pIC50.
Response: 5.11

---

system: 475296-252-R-J1-PDC spheroid viability; assay: Anticancer human tumor 475296-252-R-J1-PDC cell line growth inhibition [PI3K]; conditions: second compound 10 µM; first compound 3.16 µM; stronger effect = lower value; spheroids with HUVEC and MSC;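 further: spheroids exposed to agents for seven days before readout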
Strictly below 80% in viability, T/C: 1. Otherwise: -1.

molecule="CC(C)NCC(C(=O)N1CCN(c2ncnc3c2C(C)CC3O)CC1)c1ccc(Cl)cc1 (configuration not stated) + CC(Nc1ncnc2nc[nH]c12)c1cc2cccc(Cl)c2c(=O)n1-c1ccccc1" system="475296-252-R-J1-PDC spheroid viability" assigned_label=1
molecule="CC(Cn1ccc(-c2ccc(C#N)c(Cl)c2)n1)NC(=O)c1cc(C(C)O)[nH]n1 (configuration not stated) + CC(Nc1ncnc2nc[nH]c12)c1cc2cccc(Cl)c2c(=O)n1-c1ccccc1" system="475296-252-R-J1-PDC spheroid viability" assigned_label=-1
molecule="CC1(C)CCC(Nc2ncc(C(F)(F)F)c(-c3c[nH]c4c(P(C)(C)=O)c(C#N)ccc34)n2)CN1 (configuration not stated) + Cc1nc(NC(=O)N2CCCC2C(N)=O)sc1-c1ccnc(C(C)(C)C(F)(F)F)c1" system="475296-252-R-J1-PDC spheroid viability" assigned_label=-1
molecule="Cn1ncc(Cl)c1-c1cc(C(=O)NC(CN)Cc2cccc(F)c2)sc1Cl (configuration not stated) + CC(Nc1ncnc2nc[nH]c12)c1cc2cccc(Cl)c2c(=O)n1-c1ccccc1" system="475296-252-R-J1-PDC spheroid viability" assigned_label=1
molecule="CNC(=O)c1ccc(N2C(=S)N(c3ccc(C#N)c(C(F)(F)F)c3)C(=O)C2(C)C)cc1F + CC(Nc1ncnc2nc[nH]c12)c1cc2cccc(Cl)c2c(=O)n1-c1ccccc1" system="475296-252-R-J1-PDC spheroid viability" assigned_label=-1
molecule="C#Cc1c(F)ccc2cc(O)cc(-c3ncc4c(N5CC6CCC(C5)N6)nc(OCC56CCCN5CC(F)C6)nc4c3F)c12 (configuration not stated) + Cc1nc(NC(=O)N2CCCC2C(N)=O)sc1-c1ccnc(C(C)(C)C(F)(F)F)c1" system="475296-252-R-J1-PDC spheroid viability" assigned_label=1
molecule="Cn1nccc1Nc1nccc(-c2ccn(C(CO)c3ccc(Cl)c(F)c3)c(=O)c2)n1 (configuration not stated) + CC(Nc1ncnc2nc[nH]c12)c1cc2cccc(Cl)c2c(=O)n1-c1ccccc1" system="475296-252-R-J1-PDC spheroid viability" assigned_label=1
molecule="C[C@@H](NC(=O)c1ncnc(N)c1Cl)c1ncc(C(=O)Nc2cc(C(F)(F)F)c(Cl)cn2)s1 + Cc1nc(NC(=O)N2CCCC2C(N)=O)sc1-c1ccnc(C(C)(C)C(F)(F)F)c1" system="475296-252-R-J1-PDC spheroid viability" assigned_label=1
molecule="C[C@@H](NC(=O)c1ncnc(N)c1Cl)c1ncc(C(=O)Nc2cc(C(F)(F)F)c(Cl)cn2)s1 + CC(Nc1ncnc2nc[nH]c12)c1cc2cccc(Cl)c2c(=O)n1-c1ccccc1" system="475296-252-R-J1-PDC spheroid viability" assigned_label=-1
molecule="CC(Cn1ccc(-c2ccc(C#N)c(Cl)c2)n1)NC(=O)c1cc(C(C)O)[nH]n1 (configuration not stated) + Cc1nc(NC(=O)N2CCCC2C(N)=O)sc1-c1ccnc(C(C)(C)C(F)(F)F)c1" system="475296-252-R-J1-PDC spheroid viability" assigned_label=-1

Request: Strictly below 80% in viability, T/C? CC1(C)CCC(CN2CCN(c3ccc(C(=O)NS(=O)(=O)c4ccc(NCC5CCOCC5)c([N+](=O)[O-])c4)c(Oc4cnc5[nH]ccc5c4)c3)CC2)=C(c2ccc(Cl)cc2)C1 + CC(Nc1ncnc2nc[nH]c12)c1cc2cccc(Cl)c2c(=O)n1-c1ccccc1
Response: -1

Request: Please give the result for Cn1nccc1Nc1nccc(-c2ccn(C(CO)c3ccc(Cl)c(F)c3)c(=O)c2)n1 (configuration not stated) + Cc1nc(NC(=O)N2CCCC2C(N)=O)sc1-c1ccnc(C(C)(C)C(F)(F)F)c1 too.
Response: 1

Request: Please give the result for CC1(C)CCC(Nc2ncc(C(F)(F)F)c(-c3c[nH]c4c(P(C)(C)=O)c(C#N)ccc34)n2)CN1 (configuration not stated) + CC(Nc1ncnc2nc[nH]c12)c1cc2cccc(Cl)c2c(=O)n1-c1ccccc1 too.
Response: -1

Request: Please give the result for CC(C)NCC(C(=O)N1CCN(c2ncnc3c2C(C)CC3O)CC1)c1ccc(Cl)cc1 (configuration not stated) + Cc1nc(NC(=O)N2CCCC2C(N)=O)sc1-c1ccnc(C(C)(C)C(F)(F)F)c1 too.
Response: 1

Request: Please give the result for C=CC(=O)N1CCN(c2nc(=O)n(-c3c(C)ccnc3C(C)C)c3nc(-c4c(O)cccc4F)c(F)cc23)C(C)C1 (configuration not stated) + Cc1nc(NC(=O)N2CCCC2C(N)=O)sc1-c1ccnc(C(C)(C)C(F)(F)F)c1 too.
Response: -1

Request: Please give the result for CNC(=O)c1ccc(N2C(=S)N(c3ccc(C#N)c(C(F)(F)F)c3)C(=O)C2(C)C)cc1F + Cc1nc(NC(=O)N2CCCC2C(N)=O)sc1-c1ccnc(C(C)(C)C(F)(F)F)c1 too.
Response: -1

Request: Please give the result for CCCS(=O)(=O)Nc1ccc(F)c(C(=O)c2c[nH]c3ncc(-c4ccc(Cl)cc4)cc23)c1F + CC(Nc1ncnc2nc[nH]c12)c1cc2cccc(Cl)c2c(=O)n1-c1ccccc1 too.
Response: -1

Request: Please give the result for C=CC(=O)N1CCN(c2nc(=O)n(-c3c(C)ccnc3C(C)C)c3nc(-c4c(O)cccc4F)c(F)cc23)C(C)C1 (configuration not stated) + CC(Nc1ncnc2nc[nH]c12)c1cc2cccc(Cl)c2c(=O)n1-c1ccccc1 too.
Response: -1

Request: Please give the result for CC1(C)CCC(CN2CCN(c3ccc(C(=O)NS(=O)(=O)c4ccc(NCC5CCOCC5)c([N+](=O)[O-])c4)c(Oc4cnc5[nH]ccc5c4)c3)CC2)=C(c2ccc(Cl)cc2)C1 + Cc1nc(NC(=O)N2CCCC2C(N)=O)sc1-c1ccnc(C(C)(C)C(F)(F)F)c1 too.
Response: -1

Request: Please give the result for C#Cc1c(F)ccc2cc(O)cc(-c3ncc4c(N5CC6CCC(C5)N6)nc(OCC56CCCN5CC(F)C6)nc4c3F)c12 (configuration not stated) + CC(Nc1ncnc2nc[nH]c12)c1cc2cccc(Cl)c2c(=O)n1-c1ccccc1 too.
Response: 1

Request: Please give the result for Cn1ncc(Cl)c1-c1cc(C(=O)NC(CN)Cc2cccc(F)c2)sc1Cl (configuration not stated) + Cc1nc(NC(=O)N2CCCC2C(N)=O)sc1-c1ccnc(C(C)(C)C(F)(F)F)c1 too.
Response: 1

Request: Please give the result for CCCS(=O)(=O)Nc1ccc(F)c(C(=O)c2c[nH]c3ncc(-c4ccc(Cl)cc4)cc23)c1F + Cc1nc(NC(=O)N2CCCC2C(N)=O)sc1-c1ccnc(C(C)(C)C(F)(F)F)c1 too.
Response: 1

Reference for the values: PubChem BioAssay AID1963980
